- target.or.test.system: γ-secretase complex (Homo sapiens, UniProt P49768)
- method.notes: APP-C99 counter assay (GSI reporter assay)
- Format: cell-based
- setup.conditions: 24 h; 10µM; APP-C99 counter assay; read-out: 3p-DR in % of DMSO counter
Assign remaining activity at 10 µM to each entry below.
Answers are plain numbers, in %.

compound	remaining activity at 10 µM / %
O=C(Nc1nnc(-c2ccc3c(c2)OCCO3)o1)c1ccccc1F	137
Cc1ccc(-c2noc([C@@H]3Cc4[nH]cnc4CN3C(=O)CCC(=O)O)n2)cc1	115
COc1ccc(C(=O)N2Cc3nc[nH]c3C[C@H]2c2nc(-c3ccc(OC)cc3)no2)cc1	120
Cc1[nH]c2cccc(C(=O)N3CCCCC3CCNC(=O)c3ccccc3)c2c1C (stereo not shown)	145
CCOc1ccccc1-c1ccccc1NC(=O)c1ccc2c(c1)ncn2C1CC1	165

List reported remaining activity at 10 µM for each of these compounds:
1. Cc1ccccc1Nc1nc(N)nc(CN2CCCC(C(F)(F)F)C2)n1 (stereo not shown)
2. CCc1c(C(=O)N(C)Cc2cnn(C(C)C)c2)[nH]c2ccccc12

1: 129; 2: 71.4

---

- target.or.test.system: γ-secretase complex (Homo sapiens)
- method.notes: APP-C99 counter assay (GSI reporter assay)
- Assay type: cell-based
- setup.conditions: 9p dose response
Assign Hill-Slope 9p APP counter assay averaged to each entry below.

# example entries with known answers
compound	recorded.value
C[C@H](NC(=O)Cc1cc(F)cc(F)c1)C(=O)N[C@@H]1C(=O)N(C)c2ccccc2-c2ccccc21 [YO-01027, reference compound]	-1.7
CC(C)(C(=O)NCC(F)(F)C(F)(F)F)C(=O)N[C@@H]1C(=O)Nc2ccccc2-c2ccccc21 [RO4929097, reference compound]	-1.5
NC(=O)[C@@H](CC1CC1)[C@@H](CCC(F)(F)F)C(=O)N[C@H]1N=C(c2ccccc2)c2cccc(F)c2NC1=O [BMS-983970, reference compound]	-1.6
CC(C)(C)c1ccc(Oc2ccc(N)cn2)cc1 [CB-103, reference compound]	-2.0
C[C@H](NC(=O)Cc1cc(F)cc(F)c1)C(=O)N[C@H](C(=O)OC(C)(C)C)c1ccccc1 [DAPT, reference compound]	-2.8

Please turn your attention to the following entry.
Please give measured Hill-Slope 9p APP counter assay averaged of the following entry: C[C@H](NC(=O)[C@@H](O)c1cc(F)cc(F)c1)C(=O)N[C@@H]1C(=O)N(C)c2ccccc2-c2ccccc21 [LY-411575, reference compound]
-1.0

---

Assign inhibitor ratio in % of DMSO in 3 point DR to each entry below.
- System: Notch signalling
- method.notes: Notch reporter assay (12xCSL firefly luciferase / renilla luciferase, HEK293T Notch1ΔE reporter cell line clone #A1-11)
- Type: cell-based
- setup.conditions: 25µM; 3-point DR confirmation screen, Notch reporter assay
- From the text: To identify novel Notch inhibitors in an unbiased manner, we generated a novel Notch reporter construct, which records the level of Notch signalling immediately downstream of receptor activation rather than further downstream in the signalling cascade, for example at the level of Hes and Hey proteins (Fig. 1B). […]

molecule	recorded.value
CC(C)Nc1cncc(OCc2ccc(Cl)c(Cl)c2)n1	30.6 % of DMSO

List reported inhibitor ratio in % of DMSO in 3 point DR for each of these molecules:
1. c1ccc2c(c1)CCN(c1nc3cc4c(cc3s1)OCCO4)C2
2. CCCC(=O)c1ccc(S(=O)(=O)N2CCN(Cc3csc(-c4ccccc4)n3)CC2)cc1
3. CCC(C)(C)c1ccc(S(=O)(=O)Nc2ccc3ncsc3c2)cc1
4. FC(F)(F)CCN1CCC2(CC1)NCCc1c2[nH]c2ccc(Cl)cc12
5. COc1ccc2cc(C(=O)N3CCC(c4ccncc4)CC3)[nH]c2c1

1. 27.1 % of DMSO
2. 76.4 % of DMSO
3. 42.6 % of DMSO
4. 73.3 % of DMSO
5. 73.6 % of DMSO
